Experiment: protein stability index of a GFP-peptide fusion (GPS, HEK-293T) (PSI 1-6); higher = more stable;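 note: 24-mer peptide tiles fused after GFP, lentivirally expressed, FACS-sorted into six equal bins by GFP/DsRed ratio, decoded by Illumina sequencing, PSI is the read-weighted mean bin number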
Conditions: treatment: DMSO; c terminus: a fixed tail appended
Decide using protein stability index: a value greater than or equal to 4 is 1, a smaller one is 0.

>>> print(df.to_string())
                     sequence_record  discrete_label
0   IGLTKAGMEGDWSWVDDTPFNKVQ [CD207]               0
1  PKKKHLDYLIQATNETNVNIPQMA [SNAP91]               0
2   DPDFKDLGALKPLPACEFEMGGSE [NETO1]               1
3  SAVLFYVNMYVSIVFFGLISFDRY [P2RY14]               0
4  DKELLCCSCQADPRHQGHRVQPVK [TRIM35]               0
5    DYNPPRVQLSDEMFVFQDGRWVNE [CBY2]               1
